Recorded measurements of activity coefficient, one per entry
PROTOCOL DETAILS: activity coefficient (dimensionless); of the first substance listed, at infinite dilution; xn = mol fraction of the nth substance listed
STATED CONDITIONS: 333.16 K; Liquid; Chromatography; x1 = 0
REPORTED PROPERTY: activity coefficient

{"columns": ["COMPOUND", "REPORTED PROPERTY", "REPORTED VALUE"],
 "data": [
  ["CC(=O)OC(C)C [1-methylethyl ethanoate] + CCCCCCCCCCCC", "activity coefficient", 2.42],
  ["CCOC(C)=O [ethyl acetate] + CCCCCCCCCCCC", "activity coefficient", 2.71],
  ["CC(=O)OC(C)C [1-methylethyl ethanoate] + CCCCCCCCCC", "activity coefficient", 2.36],
  ["CCOC(C)=O [ethyl acetate] + CCCCCCCCCC", "activity coefficient", 2.75]
]}

---

# activity coefficient listing for each entry below
PROTOCOL DETAILS: activity coefficient (dimensionless); of the first substance listed, at infinite dilution; xn = mol fraction of the nth substance listed
STATED CONDITIONS: 303.16 K; Liquid; Chromatography; x1 = 0

{"columns": ["COMPOUND", "activity coefficient"],
 "data": [
  ["CC(=O)OC(C)C [1-methylethyl ethanoate] + CCCCCCCCCCCC", 2.82],
  ["CCOC(C)=O [ethyl acetate] + CCCCCCCCCC", 3.07],
  ["CCOC(C)=O [ethyl acetate] + CCCCCCCCCCCC", 3.25],
  ["CC(=O)OC(C)C [1-methylethyl ethanoate] + CCCCCCCCCC", 2.56]
]}

This collection of values is drawn from the NIST ThermoML archive (doi:10.1016/j.fluid.2004.12.005).
